System: MDA-MB-435 melanoma
test-protocol: NCI-60 one-dose screen, 48 h
experimental-conditions: 10 µM unless noted
Compounds without any hit were thinned out: in the full panel of roughly 83,000, 20% have a hit. Activity calls are given as the source filed them. How the source made its calls: active means growth percent below 10; inactive means the rest.
Classes used: yes for active, no for inactive

compound=COc1ccc(/C=C2\N=C(Nc3ccccc3)N(NC(=O)c3ccccn3)C2=O)cc1 assigned_label=no
compound=Cc1ccc(-c2cn(C/C=C3\C=CN(S(=O)(=O)c4ccccc4)CC3)nn2)cc1 assigned_label=no
compound=N#C/C(C(=O)c1ccccc1)=C1/C(=O)Nc2ccc(Br)cc21 assigned_label=no
compound=Cc1cc(-c2ccc(N=Nc3c(S(=O)(=O)O)cc4cc(S(=O)(=O)O)cc(N)c4c3O)c(C)c2)ccc1N=Nc1cc(S(=O)(=O)O)c2ccccc2c1O assigned_label=no
compound=C#CCNC(=O)CC[C@]1(C)[C@H]2CC[C@@H]3[C@@H]([C@@](C)(O)CCC=C(C)C)CC[C@@]3(C)[C@]2(C)CC[C@H]1C(=C)C assigned_label=no
compound=CC(C)(C)OC(=O)N1C=C/C(=C\Cn2cc(-c3ccccc3)nn2)CC1 assigned_label=no
compound=O=C1Nc2ccccc2/C1=C/C(=O)c1ccc(N2CCOCC2)cc1 assigned_label=no
compound=CC1=CCc2ccccc21 assigned_label=no
compound=Cn1cc(-c2noc(-c3cn(C)c4ncc(F)cc34)n2)c2ccccc21 assigned_label=no
compound=CCOc1cc(/C=N\NC(=O)N/N=C/c2ccc(O)c(OCC)c2)ccc1O assigned_label=yes
compound=CCC(Br)(CC)C(=O)c1ccc(OCC(=O)O)c(Cl)c1Cl assigned_label=no
compound=COc1cc(C(=O)/C=C/c2c(-c3ccc(F)cc3)nc3sccn23)cc(OC)c1OC assigned_label=yes
compound=ClC1=C(Cl)C(Cl)=C(Cl)C1=Cc1ccccc1 assigned_label=yes
compound="CC1Cc2c(Cl)ncnc2N(C)c2ccccc21 (stereo not given)" assigned_label=no
compound=COc1cc(C)cc2oc3oc(=O)c(C(=O)c4cc5cc(Br)ccc5o4)cc3c(=O)c12 assigned_label=no
compound=CC1=CC[C@@H]2C(C)(C)C(=O)CC[C@@]2(C)[C@@H]1COc1ccc2ccc(=O)oc2c1 assigned_label=no
compound=Cc1cccc(/C=C2\N=C(c3ccccc3)N(c3ccc(S(N)(=O)=O)cc3)C2=O)c1 assigned_label=no
compound=CC(C)C1=NOC(=O)C1=Cc1cn(-c2ccccc2)nc1-c1ccc(Cl)cc1 assigned_label=no
compound=O=C(O)c1cccc(CN2CCN(c3cc4c(cc3F)c(=O)c(C(=O)O)cn4C3CC3)CC2)c1O assigned_label=no
compound="Cc1ccc(S(=O)(=O)N/N=C2\\CC3CCC2(C)C3(C)C)cc1 (stereo not given)" assigned_label=no
